# assay-target: Apoptosis regulator Bcl-2 (Homo sapiens, UniProt P10415)
# Sequence (P10415 whole entry): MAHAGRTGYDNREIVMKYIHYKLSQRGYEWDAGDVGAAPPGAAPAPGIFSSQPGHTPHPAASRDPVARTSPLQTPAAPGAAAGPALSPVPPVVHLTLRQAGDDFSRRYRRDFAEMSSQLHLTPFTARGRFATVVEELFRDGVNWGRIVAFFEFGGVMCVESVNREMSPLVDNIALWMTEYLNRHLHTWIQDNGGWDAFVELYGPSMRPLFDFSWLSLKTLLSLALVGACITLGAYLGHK
YES if IC50 is below 3000 nM. NO if not; exact matches included in NO.

CCc1ccc(CCNC(=O)c2c(O)c(O)cc3c2C(=O)C(C)=C(C2=C(C)C(=O)c4c(cc(O)c(O)c4C(=O)NCCc4ccc(CC)cc4)C2=O)C3=O)cc1; YES

Data request: Criterion: IC50 strictly below 3000 nM. Is it met by `CC1=C(C2=C(C)C(=O)c3c(cc(O)c(O)c3CCCc3ccccc3)C2=O)C(=O)c2cc(O)c(O)c(CCCc3ccccc3)c2C1=O` ?
Data returned: YES

Data request: Criterion: IC50 strictly below 3000 nM. Is it met by `CC1=C(C2=C(C)C(=O)c3c(cc(O)c(O)c3CCc3ccccc3)C2=O)C(=O)c2cc(O)c(O)c(CCc3ccccc3)c2C1=O` ?
Data returned: YES

Data request: Criterion: IC50 strictly below 3000 nM. Is it met by `CC1=C(C2=C(C)C(=O)c3c(cc(O)c(O)c3CCc3ccc(C)cc3)C2=O)C(=O)c2cc(O)c(O)c(CCc3ccc(C)cc3)c2C1=O` ?
Data returned: NO

Data request: Criterion: IC50 strictly below 3000 nM. Is it met by CC1=C(C2=C(C)C(=O)c3c(cc(O)c(O)c3C(=O)NCC(C)c3ccccc3)C2=O)C(=O)c2cc(O)c(O)c(C(=O)NCC(C)c3ccccc3)c2C1=O (configuration not stated) ?
Data returned: YES

Data request: Criterion: IC50 strictly below 3000 nM. Is it met by `CC1=C(C2=C(C)C(=O)c3c(cc(O)c(O)c3Cc3ccccc3)C2=O)C(=O)c2cc(O)c(O)c(Cc3ccccc3)c2C1=O` ?
Data returned: YES

Data request: Criterion: IC50 strictly below 3000 nM. Is it met by `CC1=C(C2=C(C)C(=O)c3c(cc(O)c(O)c3CCC3CCCCC3)C2=O)C(=O)c2cc(O)c(O)c(CCC3CCCCC3)c2C1=O` ?
Data returned: NO

----------
# assay-target: Induced myeloid leukemia cell differentiation protein Mcl-1 (Homo sapiens)
# Sequence (Q07820 whole entry): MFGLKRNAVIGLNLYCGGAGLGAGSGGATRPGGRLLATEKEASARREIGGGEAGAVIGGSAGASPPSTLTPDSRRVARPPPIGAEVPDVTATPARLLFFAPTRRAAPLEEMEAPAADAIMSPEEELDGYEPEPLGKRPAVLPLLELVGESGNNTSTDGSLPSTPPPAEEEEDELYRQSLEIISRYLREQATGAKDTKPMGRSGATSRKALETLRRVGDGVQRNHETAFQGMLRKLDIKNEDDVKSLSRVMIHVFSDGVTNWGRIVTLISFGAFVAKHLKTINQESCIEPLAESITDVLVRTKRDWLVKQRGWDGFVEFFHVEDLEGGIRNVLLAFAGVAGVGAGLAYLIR
# measurement-notes: Displacement of FITC-Bim BH3 peptide from Mcl-1 after 10 mins by fluorescence polarization assay
measured-quantity: pKi
Note on units: pKi is unitless, being -log10 of a concentration expressed in mol/L.

Study these solved cases before continuing.
CC1=C(C2=C(C)C(=O)c3c(cc(O)c(O)c3CC3CCCC3)C2=O)C(=O)c2cc(O)c(O)c(CC3CCCC3)c2C1=O; 5.68
CCc1ccc(CCNC(=O)c2c(O)c(O)cc3c2C(=O)C(C)=C(C2=C(C)C(=O)c4c(cc(O)c(O)c4C(=O)NCCc4ccc(CC)cc4)C2=O)C3=O)cc1; 6.68
CC1=C(C2=C(C)C(=O)c3c(cc(O)c(O)c3CCCc3ccccc3)C2=O)C(=O)c2cc(O)c(O)c(CCCc3ccccc3)c2C1=O; 6.35

Lab note: `CC1=C(C2=C(C)C(=O)c3c(cc(O)c(O)c3C(C)C)C2=O)C(=O)c2cc(O)c(O)c(C(C)C)c2C1=O` gave pKi of 6.37

----------
# measurement-notes: Metabolic stability of the compound in rat microsomes after 40 mins
# Assay type: ADME, Microsome
# experimental-context: read-out: Stability
Overview of reported remaining at 40 min across a group of molecules:
Give just the numeric value; % need not be written.

Lab note: `CC1=C(C2=C(C)C(=O)c3c(cc(O)c(O)c3CCc3ccccc3)C2=O)C(=O)c2cc(O)c(O)c(CCc3ccccc3)c2C1=O` gave remaining at 40 min of 89

Lab note: CC1=C(C2=C(C)C(=O)c3c(cc(O)c(O)c3C(=O)NCC(C)c3ccccc3)C2=O)C(=O)c2cc(O)c(O)c(C(=O)NCC(C)c3ccccc3)c2C1=O (stereo unspecified) gave remaining at 40 min of 71

Lab note: `CC1=C(C2=C(C)C(=O)c3c(cc(O)c(O)c3CC(C)C)C2=O)C(=O)c2cc(O)c(O)c(CC(C)C)c2C1=O` gave remaining at 40 min of 69

Lab note: `CC1=C(C2=C(C)C(=O)c3c(cc(O)c(O)c3CCCc3ccccc3)C2=O)C(=O)c2cc(O)c(O)c(CCCc3ccccc3)c2C1=O` gave remaining at 40 min of 88

Lab note: `CC1=C(C2=C(C)C(=O)c3c(cc(O)c(O)c3CCC3CCCCC3)C2=O)C(=O)c2cc(O)c(O)c(CCC3CCCCC3)c2C1=O` gave remaining at 40 min of 98

Lab note: `CC1=C(C2=C(C)C(=O)c3c(cc(O)c(O)c3Cc3ccccc3)C2=O)C(=O)c2cc(O)c(O)c(Cc3ccccc3)c2C1=O` gave remaining at 40 min of 91
